# TESTED SYSTEM: PPARγ (Homo sapiens)
# Sequence (P37231 238-505 limits assumed): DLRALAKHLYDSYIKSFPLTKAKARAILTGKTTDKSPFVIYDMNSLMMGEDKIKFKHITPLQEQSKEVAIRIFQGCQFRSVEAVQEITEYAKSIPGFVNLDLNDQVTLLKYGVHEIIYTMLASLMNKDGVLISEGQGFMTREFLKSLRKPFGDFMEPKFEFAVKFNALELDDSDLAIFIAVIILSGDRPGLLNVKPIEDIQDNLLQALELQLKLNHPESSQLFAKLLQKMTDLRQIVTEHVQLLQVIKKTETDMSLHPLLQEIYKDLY
# MEASUREMENT DESCRIPTION: Cross-curve PPAR transactivation test (PPARγ)
# MEASUREMENT CONTEXT: HeLN cells, Gal-hPPARγ, luciferase reporter; cross curves against reference agonist, Schild regression; n.a means not active; read-out: PPAR gamma Kd app
Each item that follows carries a reported Kd.

CCCCCCCNC(=O)N(C)c1cccc(-c2ccc(CCC(=O)O)c(F)c2)c1; 4 nM
CCCCCCCNC(=O)N(C)c1cccc(-c2ccc(CCC(=O)O)cc2OCc2ccccc2)c1; 1 nM
CCCCCCCNC(=O)N(C)c1cccc(-c2ccc(CCC(=O)O)cc2OCCCC(F)(F)F)c1; 1 nM
CCCCCCCNC(=O)N(C)c1cccc(-c2ccc(CCC(=O)O)cc2OCCOCC)c1; 2 nM
CCCCOc1ccc(NC(=O)N(C)c2cccc(-c3ccc(CCC(=O)O)cc3)c2)cc1; 4 nM
CCCCCCCNC(=O)N(C)c1cccc(-c2ccc(CCC(=O)O)cc2OCCC)c1; 0.25 nM
CCCCCCCNC(=O)N(C)c1cccc(-c2ccc(CCC(=O)O)cc2OCCCCO)c1; 1 nM

Moving on to the next molecule.
Any idea what its Kd is? The molecule is `CCCCCCCNC(=O)N(C)c1cccc(-c2ccc(CCC(=O)O)cc2)c1`
2 nM
